protocol-details: qHTS assay to identify small molecule antagonists of the estrogen receptor alpha (ER-alpha) signaling pathway using the BG1 cell line (AID 743080);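 note: BG1 cells stimulated with 17beta-estradiol alongside compound; nearly all actives have a fitted effect of over 25% in size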
condition-summary: BG1Luc4E2 ERE-luciferase antagonist mode, luminescence; series mostly up to 70.3 µM
Results filed as inconclusive are left out. Activity calls are given as the source filed them. Calls come from the whole dose curve.
Hello, when you answer, please use one of the following outcomes: active, inactive

Clc1ccccc1 :: inactive
CCC(C)(C)c1ccc(O)c(C(C)(C)CC)c1 :: active
CN(C1CCCCC1)C1CCCCC1 :: inactive
O=C(O)C(O)C(O)C(=O)O (configuration not stated) :: inactive
CCSCc1ccccc1OC(=O)NC :: inactive
CCNC(=O)NC(=O)/C(C#N)=N/OC :: inactive
NP(N)(=O)NC(=O)c1ccc(F)cc1 :: inactive
CCCCC#N :: inactive
C[N+](C)(C)CC1CO1 (configuration not stated) :: inactive
O=CC=O :: inactive

Inquiry: Field: outcome | Entry: CCN(C(C)=O)c1cccc(-c2ccnc3c(C#N)cnn23)c1
Reply text: inactive

Inquiry: Test call, this molecule: CCOC(=O)NC(O)C(Cl)(Cl)Cl (configuration not stated)
Reply text: inactive

Inquiry: Please indicate how the test categorized CCCC[N+](CCCC)(CCCC)CCCC .
Reply text: inactive

Inquiry: Hey, what did the test say about OCC1CO1 (configuration not stated) ?
Reply text: inactive

Inquiry: What did this assay record as the result for CC[N+]1(CCOC(=O)C(O)(c2ccccc2)c2ccccc2)CCCCC1 ?
Reply text: inactive

Inquiry: Hello, I am checking results. What call was entered for CC(O)CN1CCN(CC(=O)[O-])CCN(CC(=O)[O-])CCN(CC(=O)[O-])CC1.[Gd+3] (configuration not stated) ?
Reply text: inactive

Inquiry: // return assay outcome for CC(C)(C)c1ccc(CCOc2ncnc3ccccc23)cc1
Reply text: inactive

Inquiry: Please indicate how the test categorized CCC1(C2=NCCN2)Cc2ccccc2O1 (configuration not stated) .
Reply text: inactive

Inquiry: Called result for CCOP(=O)(O)C(N)=O
Reply text: inactive

###

protocol-details: qHTS assay to identify small molecule antagonists of the retinoic acid receptor (RAR) signaling pathway (AID 1159552; note: nearly all actives have a fitted effect of over 50% in size)
condition-summary: C3RL4 RARE luciferase reporter, retinol-stimulated, 6 h; series mostly up to 92.4 µM
Records with an inconclusive call do not appear. The source made the active and inactive calls. The call rests on the fitted dose curve; in most records, active means well fitted inhibition curve with a large enough effect in the repeat runs; inconclusive means weak or mixed curves, or effect the other way; inactive means no such curve, though single readings can be large or run the other way.
Entry note: the call must match one of YES (active), NO (inactive)

Check out these entries, answers already filled in.
Nc1ccccc1C(=O)OCCc1ccccc1 :: NO
O=C=NC1CCCCC1 :: NO

Inquiry: Any idea what this test logged for C=CC(=O)OCC ?
Reply text: NO

Inquiry: Hi, do you know how O=C(NCNC(=O)NC1C(=O)NC(=O)N1CO)NC1C(=O)NC(=O)N1CO (stereo not drawn) came out in this test?
Reply text: NO

Inquiry: Record request — test call for C[N+](C)(C)CC1CO1 (stereo not drawn)
Reply text: NO

Inquiry: So what was the verdict on Cc1nc(N(C)C)nc(OC(=O)N(C)C)c1C in this test?
Reply text: NO

Inquiry: What outcome does the record of this test show for Cc1ncc(C[n+]2csc(CCO)c2C)c(N)n1 ?
Reply text: NO

Inquiry: Identify the outcome logged in this assay for the molecule shown: O=C(N/N=C/c1ccc([N+](=O)[O-])o1)c1cc([N+](=O)[O-])cc([N+](=O)[O-])c1O
Reply text: NO

Inquiry: Could you check what this test reported for O=C(O)c1cc(I)cc(I)c1I ?
Reply text: NO

Inquiry: What did this assay record as the result for CC1(C)CC(=O)CC(C)(C)N1[O] ?
Reply text: NO

Inquiry: Status in this test for CNC(=O)Oc1cccc(N=CN(C)C)c1 ?
Reply text: NO

Inquiry: Could you check what this test reported for NC(=S)c1c(Cl)cccc1Cl ?
Reply text: NO

Inquiry: For this molecule, state the assay outcome: CCCCCl
Reply text: NO

Inquiry: // outcome(item) with item = Clc1ccc(Cl)c(Cl)c1
Reply text: NO

Inquiry: Which outcome was assigned to C#CC(O)(C=CCl)CC (stereo not drawn) in this test?
Reply text: NO

Inquiry: Hello, I am checking results. What call was entered for COc1cc(C[C@@H](C)N)c(OC)cc1Br ?
Reply text: NO

Inquiry: Please share the test call associated with CCC(C)Cl (stereo not drawn) .
Reply text: NO

Inquiry: Outcome logged for CN(C)N in this assay:
Reply text: NO

Just for reference, PubChem BioAssay (Tox21) is where these values come from.
